Test: Ratio of drug uptake in brain to plasma of cynomolgus monkey at 10 mg/kg, po
Format: ADME, organism-based, Macaca fascicularis
Conditions: read-out: BPR
readoutType: Kp

CC1(C)Cc2c(c(C(=O)Nc3ccc(F)c(C(F)(F)F)c3)cc3nc(Nc4c(F)cccc4Cl)[nH]c23)O1 = 0.32

[A] CC1(C)Cc2c(c(C(=O)Nc3ccc(C(F)(F)F)cn3)cc3nc(Nc4c(Cl)cccc4Cl)[nH]c23)O1
[B] Cc1cccc(Cl)c1Nc1nc2cc(C(=O)Nc3cc(C(F)(F)F)ccc3F)c3c(c2[nH]1)CC(C)(C)O3
Could you tell me which of these two has the smaller Kp figure? First: A Second: B Indicate your choice by writing its label.
B

---

Biological target: CYP1A2 (Homo sapiens, UniProt P05177)
Sequence (P05177 whole entry): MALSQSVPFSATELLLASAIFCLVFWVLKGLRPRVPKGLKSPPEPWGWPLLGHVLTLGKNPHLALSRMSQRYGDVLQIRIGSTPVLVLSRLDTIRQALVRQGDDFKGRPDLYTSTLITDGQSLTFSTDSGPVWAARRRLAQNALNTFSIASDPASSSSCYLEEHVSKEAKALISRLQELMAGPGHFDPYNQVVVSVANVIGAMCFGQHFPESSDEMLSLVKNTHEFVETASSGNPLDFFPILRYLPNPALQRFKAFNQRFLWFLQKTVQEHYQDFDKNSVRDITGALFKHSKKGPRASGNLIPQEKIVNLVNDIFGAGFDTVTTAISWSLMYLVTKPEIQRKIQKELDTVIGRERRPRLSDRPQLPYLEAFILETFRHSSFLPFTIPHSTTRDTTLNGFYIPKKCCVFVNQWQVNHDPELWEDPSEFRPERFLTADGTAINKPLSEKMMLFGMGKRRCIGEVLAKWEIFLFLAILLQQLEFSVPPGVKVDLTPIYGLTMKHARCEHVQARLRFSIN
Assay: Inhibition of CYP1A2 in human liver microsomes at 10 uM after 20 mins in presence of NADPH by LC-MS/MS analysis
Type: ADME
readoutType: inhibition at 20 min, 10 µM (%)

CC1(C)Cc2c(c(C(=O)Nc3cc(C4CC4)ccc3F)cc3nc(Nc4c(F)cccc4Cl)[nH]c23)O1 = 36

[P] CC1(C)Cc2c(c(C(=O)Nc3c(F)cccc3F)cc3nc(Nc4c(Cl)cccc4Cl)[nH]c23)O1
[Q] Cn1c(Nc2c(F)cccc2Cl)nc2cc(C(=O)Nc3ccc(C4CC4)cc3)c3c(c21)CC(C)(C)O3
Between P and Q , whose measured inhibition at 20 min, 10 µM reads higher? Indicate your choice by writing its label.
Q
(Q: 41%, P: 14%)

---

Assay: Metabolic stability in rat liver microsomes assessed as parent compound remaining at 1 uM after 60 mins in presence of NADPH by LC-MS/MS analysis
Assay type: ADME, microsome
Details: read-out: Stability
readoutType: remaining at 1 h, 1 µM (%)

Cc1cccc(Cl)c1Nc1nc2cc(C(=O)Nc3cc(C4CC4)ccc3F)c3c(c2[nH]1)CC(C)(C)O3 = 89
CC1(C)Cc2c(c(C(=O)Nc3cc(C4CC4)ccc3F)cc3nc(Nc4c(Cl)cccc4Cl)[nH]c23)O1 = 92
Cn1c(Nc2c(F)cccc2Cl)nc2cc(C(=O)Nc3ccc(C(F)(F)F)cc3)c3c(c21)CC(C)(C)O3 = 68
Cc1cc(C(F)(F)F)ccc1NC(=O)c1cc2nc(Nc3c(F)cccc3Cl)[nH]c2c2c1OC(C)(C)C2 = 91
Cc1cccc(Cl)c1Nc1nc2cc(C(=O)Nc3cc(C(F)F)ccc3F)c3c(c2[nH]1)CC(C)(C)O3 = 87
Cc1ccc(NC(=O)c2cc3nc(Nc4c(F)cccc4Cl)n(C)c3c3c2OC(C)(C)C3)c(F)c1 = 71
Cc1cccc(Cl)c1Nc1nc2cc(C(=O)Nc3cc(C(F)(F)F)ccc3F)c3c(c2[nH]1)CC(C)(C)O3 = 97
Cn1c(Nc2c(F)cccc2Cl)nc2cc(C(=O)Nc3ccc(C4CC4)cc3)c3c(c21)CC(C)(C)O3 = 96

---

Test: Half life in cynomolgus monkey at 10 mg/kg, po
Format: ADME, organism-based, Macaca fascicularis
Conditions: in vivo
readoutType: half-life (h)

CC1(C)Cc2c(c(C(=O)Nc3ccc(F)c(C(F)(F)F)c3)cc3nc(Nc4c(F)cccc4Cl)[nH]c23)O1 = 6.45

[P] CC1(C)Cc2c(c(C(=O)Nc3ccc(C(F)(F)F)cn3)cc3nc(Nc4c(Cl)cccc4Cl)[nH]c23)O1
[Q] Cc1cccc(Cl)c1Nc1nc2cc(C(=O)Nc3cc(C(F)(F)F)ccc3F)c3c(c2[nH]1)CC(C)(C)O3
Could you tell me which of these two has the smaller half-life figure? First: P Second: Q Indicate your choice by writing its label.
P

---

Experiment: Cmax in Sprague-Dawley rat at 10 mg/kg, po
Format: ADME, organism-based
Design: dose 10 mg/kg, route oral
Conditions: in vivo
readoutType: Cmax (ng/mL)

CC1(C)Cc2c(c(C(=O)Nc3ccc(F)c(C(F)(F)F)c3)cc3nc(Nc4c(F)cccc4Cl)[nH]c23)O1 = 995

[A] CC1(C)Cc2c(c(C(=O)Nc3ccc(C(F)(F)F)cn3)cc3nc(Nc4c(Cl)cccc4Cl)[nH]c23)O1
[B] Cc1cccc(Cl)c1Nc1nc2cc(C(=O)Nc3cc(C(F)(F)F)ccc3F)c3c(c2[nH]1)CC(C)(C)O3
Between A and B , whose measured Cmax reads higher? Indicate your choice by writing its label.
A

---

Target: Prostaglandin E synthase 3 (Homo sapiens) (UniProt Q15185)
Sequence (whole entry): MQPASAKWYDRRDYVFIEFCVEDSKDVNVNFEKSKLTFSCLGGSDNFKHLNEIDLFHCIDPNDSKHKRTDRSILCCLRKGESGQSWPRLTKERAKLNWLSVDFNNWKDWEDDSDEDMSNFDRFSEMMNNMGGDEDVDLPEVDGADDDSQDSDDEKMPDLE
Assay: Inhibition of cPGES in human U937 cells assessed as decrease in PGE2 production at 10 uM using arachidonic acid as substrate relative to control
Assay type: cell-based
readoutType: inhibition (%)

Would you please look over these solved cases?
CC1(C)Cc2c(c(C(=O)Nc3ccc(F)c(C(F)(F)F)c3)cc3nc(Nc4c(F)cccc4Cl)[nH]c23)O1 = 0
Cc1cccc(Cl)c1Nc1nc2cc(C(=O)Nc3cc(C(F)(F)F)ccc3F)c3c(c2[nH]1)CC(C)(C)O3 = 21.1
Cc1cccc(Cl)c1Nc1nc2cc(C(=O)Nc3cc(C(F)F)ccc3F)c3c(c2[nH]1)CC(C)(C)O3 = 11
CC1(C)Cc2c(c(C(=O)Nc3cc(C(F)(F)F)ccc3F)cc3nc(Nc4c(F)cccc4Cl)[nH]c23)O1 = 4.2

[a] Cn1c(Nc2c(F)cccc2Cl)nc2cc(C(=O)Nc3cccc(C(F)(F)F)c3)c3c(c21)CC(C)(C)O3
[b] CC1(C)Cc2c(c(C(=O)Nc3ccc(C(F)(F)F)cn3)cc3nc(Nc4c(Cl)cccc4Cl)[nH]c23)O1
Could you tell me which of these two has the smaller inhibition figure? First: a Second: b Indicate your choice by writing its label.
b

---

Experiment: Metabolic stability in human liver microsomes assessed as parent compound remaining at 1 uM after 60 mins in presence of NADPH by LC-MS/MS analysis
Assay type: ADME, microsome
Conditions: read-out: Stability
readoutType: remaining at 1 h, 1 µM (%)

CC1(C)Cc2c(c(C(=O)Nc3cc(C(F)F)ccc3F)cc3nc(Nc4c(F)cccc4Cl)[nH]c23)O1 = 88
Cc1cccc(Cl)c1Nc1nc2cc(C(=O)Nc3cc(C4CC4)ccc3F)c3c(c2[nH]1)CC(C)(C)O3 = 93
Cc1cc(C(F)(F)F)ccc1NC(=O)c1cc2nc(Nc3c(F)cccc3Cl)[nH]c2c2c1OC(C)(C)C2 = 82
CC1(C)Cc2c(c(C(=O)Nc3cc(C4CC4)ccc3F)cc3nc(Nc4c(F)cccc4Cl)[nH]c23)O1 = 100
Cc1ccc(NC(=O)c2cc3nc(Nc4c(F)cccc4Cl)n(C)c3c3c2OC(C)(C)C3)c(F)c1 = 68
CC1(C)Cc2c(c(C(=O)Nc3ccc(C(F)(F)F)cc3F)cc3nc(Nc4c(F)cccc4Cl)[nH]c23)O1 = 100
CC1(C)Cc2c(c(C(=O)Nc3ccc(C(F)(F)F)cn3)cc3nc(Nc4c(Cl)cccc4Cl)[nH]c23)O1 = 91
CC1(C)Cc2c(c(C(=O)Nc3cc(C4CC4)ccc3F)cc3nc(Nc4c(Cl)cccc4Cl)[nH]c23)O1 = 95
Cn1c(Nc2c(F)cccc2Cl)nc2cc(C(=O)Nc3ccc(C(F)(F)F)cc3)c3c(c21)CC(C)(C)O3 = 100
Cc1cccc(Cl)c1Nc1nc2cc(C(=O)Nc3cc(C(F)F)ccc3F)c3c(c2[nH]1)CC(C)(C)O3 = 83
CC1(C)Cc2c(c(C(=O)Nc3ccccc3C(F)(F)F)cc3nc(Nc4c(F)cccc4Cl)[nH]c23)O1 = 93
Cc1cccc(Cl)c1Nc1nc2cc(C(=O)Nc3cc(C(F)(F)F)ccc3F)c3c(c2[nH]1)CC(C)(C)O3 = 100
Cc1cccc(Cl)c1Nc1nc2cc(C(=O)Nc3ccc(F)c(C(F)(F)F)c3)c3c(c2[nH]1)CC(C)(C)O3 = 95
Cn1c(Nc2c(F)cccc2Cl)nc2cc(C(=O)Nc3ccc(C4CC4)cc3)c3c(c21)CC(C)(C)O3 = 97
Cc1cccc(Cl)c1Nc1nc2cc(C(=O)Nc3ccc(C(F)(F)F)cc3)c3c(c2[nH]1)CC(C)(C)O3 = 100
CC1(C)Cc2c(c(C(=O)Nc3c(F)cccc3F)cc3nc(Nc4c(Cl)cccc4Cl)[nH]c23)O1 = 72

---

Assay: Tmax in cynomolgus monkey at 10 mg/kg, po
Format: ADME, organism-based, Macaca fascicularis
Details: in vivo
readoutType: Tmax (h)

CC1(C)Cc2c(c(C(=O)Nc3ccc(F)c(C(F)(F)F)c3)cc3nc(Nc4c(F)cccc4Cl)[nH]c23)O1 = 24

[a] CC1(C)Cc2c(c(C(=O)Nc3ccc(C(F)(F)F)cn3)cc3nc(Nc4c(Cl)cccc4Cl)[nH]c23)O1
[b] Cc1cccc(Cl)c1Nc1nc2cc(C(=O)Nc3cc(C(F)(F)F)ccc3F)c3c(c2[nH]1)CC(C)(C)O3
Between a and b , whose measured Tmax reads higher? Indicate your choice by writing its label.
b
(b: 12 h, a: 6 h)
